# tested_system: Alpha-1A adrenergic receptor (Homo sapiens)
# Sequence (P35348 whole entry): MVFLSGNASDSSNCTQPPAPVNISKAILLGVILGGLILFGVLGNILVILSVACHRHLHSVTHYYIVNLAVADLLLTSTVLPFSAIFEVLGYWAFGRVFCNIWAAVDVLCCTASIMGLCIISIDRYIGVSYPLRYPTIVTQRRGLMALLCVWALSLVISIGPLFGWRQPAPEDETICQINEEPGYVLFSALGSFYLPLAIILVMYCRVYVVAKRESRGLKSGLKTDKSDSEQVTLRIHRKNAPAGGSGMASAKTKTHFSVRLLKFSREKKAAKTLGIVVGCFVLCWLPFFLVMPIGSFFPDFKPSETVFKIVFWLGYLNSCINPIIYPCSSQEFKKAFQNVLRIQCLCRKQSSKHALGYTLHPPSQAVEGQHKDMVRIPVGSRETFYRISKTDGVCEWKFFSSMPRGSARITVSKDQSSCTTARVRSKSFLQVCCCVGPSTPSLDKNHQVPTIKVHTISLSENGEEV
# assay_explanation: Binding affinity to adrenergic alpha1A receptor (unknown origin)
# test_context: read-out: Ki
pKi: −log10 of the molar value.
measured_endpoint: pKi

compound=O=C1CC2(CCCC2)CC(=O)N1CCN1CCN(c2ccccc2)CC1 measured_endpoint=pKi value_reported=5.57
compound=Cc1ccc(C)c(N2CCN(CCN3C(=O)CC4(CCCC4)CC3=O)CC2)c1 measured_endpoint=pKi value_reported=7.02
compound=c1ccc(OCCN[C@H]2COC[C@H](c3ccccc3)O2)cc1 measured_endpoint=pKi value_reported=6.39

a. c1ccc(OCCN[C@H]2CO[C@H](c3ccccc3)CO2)cc1
b. c1ccc(OCCNC2COC(c3ccccc3)(c3ccccc3)CO2)cc1 (stereo unspecified)
c. COc1ccccc1N1CCN(CC(O)COc2cccc3ccccc23)CC1 (stereo unspecified) [NAFTOPIDIL]
Asked: Ordering: ascending pKi. Give the labels in the order requested.
Given back: a, b, c
(a: 6.27, b: 6.65, c: 8.23)
